Test system: A498 renal
Experiment: NCI-60 one-dose screen, 48 h
Conditions: 10 µM unless noted
Compounds without any hit were thinned out: in the full panel of roughly 83,000, 20% have a hit. Active and inactive are the calls of the source. How the source made its calls: active means growth percent below 10; inactive means the rest.
Your reply should match one of these outcome classes. YES = active, NO = inactive

Worked cases, answers included:
{"COMPOUND": "O=S(=O)(NCCCNc1nccc(-c2c(-c3cccc(F)c3)nc3occn23)n1)c1cccc2ccccc12", "TARGET UNDER TEST": "A498 renal", "ASSIGNED LABEL": "NO"}
{"COMPOUND": "CCn1cc(-c2ccnc(NCCNS(=O)(=O)c3cccc4ccccc34)c2)c(-c2cccc(O)c2)n1", "TARGET UNDER TEST": "A498 renal", "ASSIGNED LABEL": "NO"}

Per the records of this test, what outcome belongs to O=C(Nc1cccc(C2=NCCN2)c1)c1cccc(C(=O)Nc2cccc(C3=NCCN3)c2)c1 ?
NO

Please let me know the test result on file for CC[C@@H]1NC(=O)[C@@H]2CCCCN2C(=O)[C@@H]2CCCN2C(=O)[C@@H](NC(=O)[C@H](Cc2cc(F)cc(F)c2)NC(=O)Nc2ccc(C3CC3)cc2F)[C@H](C)OC(=O)[C@@H]2C[C@@H](C)CN2C1=O .
YES

Hi, do you know how COCCCNc1nc(NC(=O)c2cc(Br)cc(C(F)(F)F)c2)cc(-c2cccnc2)n1 came out in this test?
NO

// param item: C=C(CN=[N+]=[N-])[C@@H]1CC[C@]2(C)[C@H](CC[C@@H]3[C@H]4[C@H]5OC(=O)[C@@]4(CCC5(C)C)CC[C@]32C)[C@@]1(C)CCC#N ; yields the recorded call
NO

# fetch the recorded call for Nc1cc(Cl)cc2cccnc12 here
NO

Outcome logged for N#CC1C(=O)NC(c2ccccc2[N+](=O)[O-])c2sc3c(F)cccc3c21 (stereo not drawn) in this assay:
YES

###

Overview of reported growth across a group of molecules:
Tested on: SW-620 colon
Experiment: NCI-60 one-dose screen, 48 h (100 = growth as untreated, 0 = no growth, -100 = all killed)
Conditions: 10 µM unless noted
This is part of a sample that, as a whole, favours compounds with a hit. Of some 83,000 tested, about 20% had one in any assay. Active and inactive are the calls of the source. Rule for the calls: active = growth percent below 10; inactive = the rest.

# count of solved cases: 5
{"MOLECULE": "Cc1cc(SC#N)ncn1", "TARGET UNDER TEST": "SW-620 colon", "growth": "106% (inactive)"}
{"MOLECULE": "CCOC(=O)COc1ccc2c(c1)O/C(=C\\c1ccc(O)cc1)C2=O", "TARGET UNDER TEST": "SW-620 colon", "growth": "104% (inactive)"}
{"MOLECULE": "O=C1CN(Cc2ccc(C(=O)NO)cc2)C(=O)[C@@H](Cc2ccccc2)N1", "TARGET UNDER TEST": "SW-620 colon", "growth": "102% (inactive)"}
{"MOLECULE": "O=C1Cc2c(sc3c(F)cccc23)C(c2ccccc2[N+](=O)[O-])N1 (centres undefined)", "TARGET UNDER TEST": "SW-620 colon", "growth": "79.3% (inactive)"}
{"MOLECULE": "CC(=O)OC[C@]12CC[C@@H]([C@@H](C)C(N)=O)[C@@H]1[C@H]1CC[C@@H]3[C@@]4(C)CC[C@H](OC(C)=O)C(C)(C)[C@@H]4CC[C@@]3(C)[C@]1(C)CC2", "TARGET UNDER TEST": "SW-620 colon", "growth": "-55.1% [100 µM] (active)"}

Could you now consider this next molecule?
Read the entry C[C@H]1[C@H](C)CC[C@]2(C(=O)N3CCN(C)CC3)CC[C@]3(C)C(=CC[C@@H]4[C@@]5(C)C/C(=C/c6ccco6)C(=O)C(C)(C)[C@@H]5CC[C@]43C)[C@H]12 and write its reported growth.
39.9% [100 µM] (inactive)

###

Tested on: HCC-2998 colon
Assay: NCI-60 one-dose screen, 48 h
Conditions: 10 µM unless noted
Compounds without any hit were thinned out: in the full panel of roughly 83,000, 20% have a hit. Activity calls are given as the source filed them. Rule for the calls: active = growth percent below 10; inactive = the rest.
One label from this list, please: active, inactive

{"COMPOUND": "O=C(Nc1cccc(F)c1)c1cc(=O)[nH]c2cc(Br)ccc12", "ASSIGNED LABEL": "inactive"}
{"COMPOUND": "CC1(C)CC[C@]2(C(=O)O)CC[C@]3(C)C(=CC[C@@H]4[C@@]5(C)C/C(=C/c6ccco6)C(=O)C(C)(C)[C@@H]5CC[C@]43C)[C@@H]2C1", "ASSIGNED LABEL": "active"}
{"COMPOUND": "C[C@]12CCc3nc(Nc4ccccc4)sc3C1=CC[C@@H]1[C@@H]2CC[C@]2(C)/C(=N/NC(N)=S)CC[C@@H]12", "ASSIGNED LABEL": "inactive"}
{"COMPOUND": "O=C(NCc1ccc(Cn2c(=O)sn(-c3ccccc3)c2=O)cc1)OCc1ccc2c(Br)cc(Br)c(O)c2n1", "ASSIGNED LABEL": "active"}
{"COMPOUND": "C=CC1=C(C)C2=NC1=CC1=NC(=CC3=C(C)C4=C(O)C(C(=O)O)C(=C5NC(=C2)C(C)C5CCC(=O)O)C4=N3)C(CC)=C1C (stereo not drawn)", "ASSIGNED LABEL": "inactive"}
{"COMPOUND": "O=C(CCN1CCCCC1)c1ccc2ccccc2c1", "ASSIGNED LABEL": "inactive"}
{"COMPOUND": "O=C(OCc1ccc2c(Cl)cc(Cl)c(O)c2n1)N1CCNCC1", "ASSIGNED LABEL": "inactive"}

State the result this test recorded for CCOC(=O)c1nn(C2CCCCO2)c2ccc(NS(=O)(=O)c3ccc(C)cc3)cc12 (stereo not drawn) .
inactive

###

Tested on: SR leukemia
Assay: NCI-60 one-dose screen, 48 h (100 = growth as untreated, 0 = no growth, -100 = all killed)
Conditions: 10 µM unless noted
Description: Growth inhibition of the SR human tumor cell line is measured as a screen for anti-cancer activity. Cells are grown in 96 well plates and exposed to the test compound for 48 hours. Compounds are tested at a single concentration, which is 10^-5 M for most compounds. The reported endpoint is percent growth (GI% or GIPRCNT), where numbers from 0 - 100% represent growth inhibition, and numbers from -100% - 0 represent cell death. For example, a value of 40 represents 60% growth inhibition. […]
The panel holds about 83,000 compounds, 20% with a hit somewhere; the sample as a whole holds those more often.
READOUT TYPE: growth (%)
Answer in %, number only, no unit symbol.

{"COMPOUND": "Cn1cc(-c2noc(C(=O)c3cn(C)c4ncc(Br)cc34)n2)c2ccccc21", "growth / %": 95.6}
{"COMPOUND": "Cc1ccc(C2=C/C(=C/c3ccc(Br)cc3)C(=O)N2CCc2ccc(S(N)(=O)=O)cc2)cc1", "growth / %": 87.2}
{"COMPOUND": "COc1cc2c(c(OC)c1)C1c3cc(OC)ccc3NC(=O)N1CC2 (stereo unspecified)", "growth / %": 24}
{"COMPOUND": "CCOC(=O)c1nn(C2CCCCO2)c2ccc(NC(=O)CN3CCCC3)cc12 (stereo unspecified)", "growth / %": 103}

Indicate its recorded growth; the compound in question is O=c1c2c3c(sc2n2cnnc2n1Cc1ccccc1)CCCC3
78.6

Identify the reported growth for the following entry. CC(C)CSc1ncnc2nc[nH]c12
119

###

Test system: MALME-3M melanoma
Assay: NCI-60 one-dose screen, 48 h
Details: 10 µM unless noted
This is part of a sample that, as a whole, favours compounds with a hit. Of some 83,000 tested, about 20% had one in any assay. Calls of active or inactive are those of the source. The calls were made as follows: active = growth percent below 10; inactive = the rest.
Reply using exactly one outcome from 1 (active), 0 (inactive)

Study these solved cases before continuing.
{"COMPOUND": "C=C(CN=[N+]=[N-])[C@@H]1CC[C@]2(C)[C@H](CC[C@@H]3[C@H]4[C@H]5OC(=O)[C@@]4(CCC5(C)C)CC[C@]32C)[C@@]1(C)CCC#N", "TARGET UNDER TEST": "MALME-3M melanoma", "ASSIGNED LABEL": 0}
{"COMPOUND": "N#Cc1c(Cl)nc(SCC2CO2)nc1-c1ccccc1 (centres undefined)", "TARGET UNDER TEST": "MALME-3M melanoma", "ASSIGNED LABEL": 0}
{"COMPOUND": "CCOc1ccc(S(=O)(=O)Nc2ccc3c(c2)N(S(=O)(=O)CC)CCC3)cc1", "TARGET UNDER TEST": "MALME-3M melanoma", "ASSIGNED LABEL": 0}
{"COMPOUND": "C#CC(OC(=O)N(C)C)(c1ccccc1)c1ccc(F)cc1 (centres undefined)", "TARGET UNDER TEST": "MALME-3M melanoma", "ASSIGNED LABEL": 0}
{"COMPOUND": "C=CCc1nc2ccccc2s1", "TARGET UNDER TEST": "MALME-3M melanoma", "ASSIGNED LABEL": 0}
{"COMPOUND": "Cc1ccccc1OC(=O)c1cccc(Cl)c1", "TARGET UNDER TEST": "MALME-3M melanoma", "ASSIGNED LABEL": 0}
{"COMPOUND": "COc1cc(OC)cc(C(=O)Nc2cc(-c3cccnc3)nc(NCCCN3CCOCC3)n2)c1", "TARGET UNDER TEST": "MALME-3M melanoma", "ASSIGNED LABEL": 0}
{"COMPOUND": "COc1ccc(OC)c(NC=O)c1", "TARGET UNDER TEST": "MALME-3M melanoma", "ASSIGNED LABEL": 0}
{"COMPOUND": "Cc1ccc(S(=O)(=O)Oc2ccc(Br)cc2Br)cc1", "TARGET UNDER TEST": "MALME-3M melanoma", "ASSIGNED LABEL": 0}
{"COMPOUND": "COc1cc2c(c(OC)c1OC)-c1cc(I)c(O)cc1[C@@H](NC(C)=O)CC2", "TARGET UNDER TEST": "MALME-3M melanoma", "ASSIGNED LABEL": 0}

I'd appreciate the recorded outcome for COc1ccc(-c2cc(-c3ccc(OC)c(OC)c3)nc(SCCCCCC(=O)NO)n2)cc1 from this test.
0
